Quick reference: pIC50 of the listed items.
target_or_test_system: human P2X7 receptor (Homo sapiens, UniProt Q99572, R270H/Y155H)
assay_method_text: Evaluation of human P2X7 receptor inhibitory activity (Yo-Pro uptake, BzATP stimulation, FLIPR TETRA)
Assay type: cell-based
conditions_used: antagonistic activity for the human P2X7 receptor; read-out: IC50
pIC50: −log10 of the molar value.

| line_notation | target_or_test_system | endpoint_label | value_reported |
| --- | --- | --- | --- |
| Cc1c(Nc2nc(=O)c(F)cn2Cc2cc(F)c(F)c(F)c2)ccc2[nH]ccc12 | human P2X7 receptor (Homo sapiens, UniProt Q99572, R270H/Y155H) | pIC50 | > 8.00 |
| Cc1cc(OC(F)(F)F)ccc1Nc1nc(=O)c(F)cn1Cc1cc(F)cc(F)c1 | human P2X7 receptor (Homo sapiens, UniProt Q99572, R270H/Y155H) | pIC50 | 7.00 to 8.00 |

*Q* Record lookup: for human P2X7 receptor (Homo sapiens, UniProt Q99572, R270H/Y155H), what pIC50 belongs to `Cc1cc2cc(Nc3nc(=O)c(F)cn3Cc3ccc(F)c(Cl)c3)c(C)cc2[nH]1` ?
*A* 7.00 to 8.00

*Q* Report pIC50 for `CCc1cc2c(cc1Nc1nc(=O)c(OC)cn1Cc1ccc(F)c(Cl)c1)OC(F)(F)O2` tested on human P2X7 receptor (Homo sapiens, UniProt Q99572, R270H/Y155H).
*A* 7.00 to 8.00

*Q* Value wanted: pIC50 (human P2X7 receptor (Homo sapiens, UniProt Q99572, R270H/Y155H)) of entry `COc1cn(Cc2ccc(F)c(Cl)c2)c(Nc2cc(-c3ccnn3C)ccc2C)nc1=O`
*A* 7.00 to 8.00

*Q* Report pIC50 for `COc1ccc(C)c(Nc2nc(=O)c(F)cn2Cc2cc(F)cc(F)c2)c1` tested on human P2X7 receptor (Homo sapiens, UniProt Q99572, R270H/Y155H).
*A* 7.00 to 8.00

*Q* API: value(readout=pIC50, system=human P2X7 receptor (Homo sapiens, UniProt Q99572, R270H/Y155H)) for record `CCOc1cc(Nc2nc(=O)c(F)cn2Cc2cc(F)c(F)c(F)c2)c(C)cc1F`
*A* > 8.00

*Q* // map `COc1cc(F)c(Nc2nc(=O)cnn2Cc2cc(F)c(F)c(F)c2)cc1OC` to recorded pIC50 (system: human P2X7 receptor (Homo sapiens, UniProt Q99572, R270H/Y155H))
*A* > 8.00
